# Test system: human primary monocytes
# Test Protocol: IFN-α production in human primary monocytes transfected with RNA (ELISA)
# Format: cell-based
# Run Conditions: monocytes from three donors, 36 hours after transfection; normalized to the mean induction level of all oligonucleotides (=100%)
{ppp} = triphosphate group
Property: IFN-α induction (*100%) mean

# Substance, IFN-α induction (*100%) mean
measured = [
    ("auucggggac acacacacac acacacacac (AUUCGGGGACACACACACACACACACACAC; RNA, 5' {ppp}, backbone not given here) [SEQ ID No. 144]", "1.03 *100%"),
    ("acagggggac acacacacac acacacacac (ACAGGGGGACACACACACACACACACACAC; RNA, 5' {ppp}, backbone not given here) [SEQ ID No. 150]", "1.12 *100%"),
]

Moving on to another substance below.
*Q* Entry aucgggggac acacacacac acacacacac (AUCGGGGGACACACACACACACACACACAC; RNA, 5' {ppp}, backbone not given here) [SEQ ID No. 162] has what IFN-α induction (*100%) mean?
*A* 1.28 *100%

* * *

Below is a list of entries, each paired with its recorded IFN-α induction (*100%) mean value.
# System: human primary monocytes
# Test Protocol: IFN-α production in human primary monocytes transfected with RNA (ELISA)
# Type: cell-based
# Run Conditions: monocytes from three donors, 36 hours after transfection; normalized to the mean induction level of all oligonucleotides (=100%)
{ppp} = triphosphate group

# Substance, IFN-α induction (*100%) mean
measured = [
    ("agaaggggac acacacacac acacacacac (AGAAGGGGACACACACACACACACACACAC; RNA, 5' {ppp}, backbone not given here) [SEQ ID No. 165]", "1.29 *100%"),
    ("aacaggggac acacacacac acacacacac (AACAGGGGACACACACACACACACACACAC; RNA, 5' {ppp}, backbone not given here) [SEQ ID No. 166]", "1.30 *100%"),
    ("accuggggac acacacacac acacacacac (ACCUGGGGACACACACACACACACACACAC; RNA, 5' {ppp}, backbone not given here) [SEQ ID No. 124]", "0.76 *100%"),
    ("aaccggggac acacacacac acacacacac (AACCGGGGACACACACACACACACACACAC; RNA, 5' {ppp}, backbone not given here) [SEQ ID No. 156]", "1.20 *100%"),
    ("aggcggggac acacacacac acacacacac (AGGCGGGGACACACACACACACACACACAC; RNA, 5' {ppp}, backbone not given here) [SEQ ID No. 131]", "0.91 *100%"),
]

Moving on to another substance below.
*Q* Lookup: IFN-α induction (*100%) mean / human primary monocytes / agcaggggac acacacacac acacacacac (AGCAGGGGACACACACACACACACACACAC; RNA, 5' {ppp}, backbone not given here) [SEQ ID No. 164]
*A* 1.29 *100%
